Test system: Fer (mouse);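 also: 11-residue human phosphosite peptides and single-mutation variants displayed on the E. coli surface, counted by deep sequencing, each peptide's frequency after selection divided by its frequency in the unselected input library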;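 also: frequency after pTyr selection over input frequency; kinase dosed for 20-30% of maximal phosphorylation in three min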
Assay: phosphorylation enrichment, bacterial display (enrichment ratio); higher = better substrate or ligand; peptides without Tyr show the background
measured_parameter: phosphorylation enrichment
Answers are plain numbers.

Below, 5 sequences whose answers are already recorded.
QQTFTYDSGIH [JUP_Y22_YF]: 0.896
TVLEHYRRTHC [MYBPC3_Y1119]: 0.408
LGPSDYFGETA [PRKAR1A_Y323_I327T]: 0.422
RLLRGYRQDAF [HLA-A_Y137_F133L_YF]: 0.659
HLVLNYGVCFC [JAK2_Y613_V617F]: 0.982

Return reported phosphorylation enrichment values for all items listed beneath this line.
1. EQAERYDDMAA [YWHAG_Y20]
2. QGCSIYKDFFR [PLA2G2D_Y82_YF]
3. GKTQQYDCKWY [BCR_Y751]
4. GREEFYVHFVG [KAT8_Y90_YF]
5. LPHVIYCRLWR [SMAD2_Y128]
6. GHLFANDWISI [BEST1_Y227_Y227N_YF]

Marked response:
1. 0.501
2. 0.774
3. 0.432
4. 0.513
5. 0.434
6. 0.427
